target_entity: TLK2 (human) (UniProt Q86UE8)
Sequence (Q86UE8 whole entry, looked up): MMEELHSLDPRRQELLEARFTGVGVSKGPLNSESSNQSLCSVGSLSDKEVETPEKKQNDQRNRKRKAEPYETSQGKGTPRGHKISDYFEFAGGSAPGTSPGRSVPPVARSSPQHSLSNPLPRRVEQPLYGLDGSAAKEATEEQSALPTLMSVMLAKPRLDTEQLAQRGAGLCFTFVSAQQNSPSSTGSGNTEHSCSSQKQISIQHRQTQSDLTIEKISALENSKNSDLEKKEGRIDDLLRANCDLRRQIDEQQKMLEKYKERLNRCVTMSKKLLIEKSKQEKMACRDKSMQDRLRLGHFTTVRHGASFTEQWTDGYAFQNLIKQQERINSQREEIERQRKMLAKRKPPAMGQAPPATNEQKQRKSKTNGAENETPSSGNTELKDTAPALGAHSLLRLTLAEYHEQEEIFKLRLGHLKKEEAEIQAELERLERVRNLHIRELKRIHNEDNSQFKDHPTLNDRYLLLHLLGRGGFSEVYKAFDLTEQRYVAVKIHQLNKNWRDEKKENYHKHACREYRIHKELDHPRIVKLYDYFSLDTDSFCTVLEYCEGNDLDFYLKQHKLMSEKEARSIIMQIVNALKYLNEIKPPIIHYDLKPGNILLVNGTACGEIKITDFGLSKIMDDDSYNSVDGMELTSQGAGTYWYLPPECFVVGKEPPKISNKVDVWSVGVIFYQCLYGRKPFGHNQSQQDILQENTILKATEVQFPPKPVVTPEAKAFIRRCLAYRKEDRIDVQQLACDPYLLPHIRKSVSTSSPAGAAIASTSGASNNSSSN
experiment_description: KINOMEscan competition binding
measurement_context: compound 10.0 µM
Consider the following molecules and their measured kinase still bound, per cent of control readings.
Remember to quote the unit after the number.

COc1cc2ncn(-c3cc(OCc4ccccc4C(F)(F)F)c(C(N)=O)s3)c2cc1OC: 100%
COc1ccc(N(C(=O)Oc2c(C)cccc2C)c2ccnc(Nc3ccc(N4CCN(C)CC4)cc3)n2)c(OC)c1: 76%
COCC(=O)NC/C=C/c1ccc2ncnc(Nc3ccc(Oc4ccc(C)nc4)c(C)c3)c2c1: 100%
CCN(CC)CCCCNc1ncc2cc(-c3cc(OC)cc(OC)c3)c(NC(=O)NC(C)(C)C)nc2n1: 100%
CCN1CCN(C(=O)Cc2ccc(Nc3ncc(F)c(Nc4ccc(C(=O)Nc5ccccc5Cl)cc4)n3)cc2)CC1: 33%
NC(=O)Nc1cc(-c2cccc(F)c2)sc1C(=O)N[C@@H]1CCCNC1: 1.9%
O=c1cc(N2CCOCC2)oc2c(-c3cccc4c3sc3ccccc34)cccc12: 80%
CS(=O)(=O)N1CCN(Cc2cc3nc(-c4cccc5[nH]ncc45)nc(N4CCOCC4)c3s2)CC1: 100%

Here is the next item to consider.
Query: // returns reported kinase still bound, per cent of control for input O=C(Nc1cccc(Nc2ncc(Br)c(NCCc3cnc[nH]3)n2)c1)N1CCCC1
Response: 56%
